Overview of reported log10(Kd) across a group of molecules:
Target: S100B (Homo sapiens)
Construct: made in house; host or cells: Escherichia coli BL21(DE3)
Sequence (P04271 whole entry): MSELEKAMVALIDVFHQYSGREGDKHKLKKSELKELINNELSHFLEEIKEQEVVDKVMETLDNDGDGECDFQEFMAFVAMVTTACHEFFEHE
Assay: Pull-down assay with immobilized protein and LSM libraries
Format: binding
Settings: H14 library; 1:1 binding assumed; read-out: Surface mapping KD (apparent)
Note the log scale: values are log10 of Kd expressed in µM.

Here is how some molecules turned out for log10(Kd).
NC(=O)CC[C@@H](CC(=O)N[C@H]1CCCC[C@@H]1C(=O)N[C@H]1CCCC[C@@H]1C(=O)N[C@H](CC(=O)N[C@H]1CCCC[C@@H]1C(N)=O)Cc1ccccc1)NC(=O)[C@H]1CCCC[C@@H]1N [H14 QF] :: 1.92
CC(C)C[C@@H](CC(=O)N[C@H]1CCCC[C@@H]1C(N)=O)NC(=O)[C@H]1CCCC[C@@H]1NC(=O)[C@H]1CCCC[C@@H]1NC(=O)C[C@H](Cc1c[nH]c2ccccc12)NC(=O)[C@H]1CCCC[C@@H]1N [H14 WL] :: 1.08
CC[C@H](C)[C@@H](CC(=O)N[C@H]1CCCC[C@@H]1C(N)=O)NC(=O)[C@H]1CCCC[C@@H]1NC(=O)[C@H]1CCCC[C@@H]1NC(=O)C[C@H](CCCNC(=N)N)NC(=O)[C@H]1CCCC[C@@H]1N [H14 RI] :: 1.49

// query Please indicate log10(Kd) recorded for NCCCC[C@@H](CC(=O)N[C@H]1CCCC[C@@H]1C(N)=O)NC(=O)[C@H]1CCCC[C@@H]1NC(=O)[C@H]1CCCC[C@@H]1NC(=O)C[C@H](CO)NC(=O)[C@H]1CCCC[C@@H]1N [H14 SK]
// result 2.26

// query Please indicate log10(Kd) recorded for CSCC[C@@H](CC(=O)N[C@H]1CCCC[C@@H]1C(=O)N[C@H]1CCCC[C@@H]1C(=O)N[C@H](CC(=O)N[C@H]1CCCC[C@@H]1C(N)=O)Cc1ccccc1)NC(=O)[C@H]1CCCC[C@@H]1N [H14 MF]
// result 1.93

###

Molecular target: S100B (Homo sapiens)
Construct: made in house; host or cells: Escherichia coli BL21(DE3)
Experiment: Pull-down assay with immobilized protein and LSM libraries
Type: binding
Settings: H12 library; 1:1 binding assumed; read-out: Surface mapping KD (apparent)
Overview of reported Kd across a group of compounds:
Respond with the bare value in µM.

Here is how some compounds turned out for Kd.
N=C(N)NCCC[C@@H](CC(=O)N[C@H]1CCC[C@@H]1C(=O)N[C@H]1CCC[C@@H]1C(N)=O)NC(=O)[C@H]1CCC[C@@H]1NC(=O)[C@H]1CCC[C@@H]1NC(=O)C[C@H](CC(N)=O)NC(=O)[C@H]1CCC[C@@H]1NC(=O)[C@H]1CCC[C@@H]1N [H12 NR] :: 106
NCCCC[C@@H](CC(=O)N[C@H]1CCC[C@@H]1C(=O)N[C@H]1CCC[C@@H]1C(N)=O)NC(=O)[C@H]1CCC[C@@H]1NC(=O)[C@H]1CCC[C@@H]1NC(=O)C[C@H](Cc1ccc(O)cc1)NC(=O)[C@H]1CCC[C@@H]1NC(=O)[C@H]1CCC[C@@H]1N [H12 YK] :: 86
NC(=O)[C@H]1CCC[C@@H]1NC(=O)[C@H]1CCC[C@@H]1NC(=O)C[C@H](Cc1ccc(O)cc1)NC(=O)[C@H]1CCC[C@@H]1NC(=O)[C@H]1CCC[C@@H]1NC(=O)C[C@H](Cc1ccc(O)cc1)NC(=O)[C@H]1CCC[C@@H]1NC(=O)[C@H]1CCC[C@@H]1N [H12 YY] :: 128

Lab note: next compound to report on.
// query Please indicate Kd recorded for CC(C)[C@@H](CC(=O)N[C@H]1CCC[C@@H]1C(=O)N[C@H]1CCC[C@@H]1C(N)=O)NC(=O)[C@H]1CCC[C@@H]1NC(=O)[C@H]1CCC[C@@H]1NC(=O)C[C@@H](NC(=O)[C@H]1CCC[C@@H]1NC(=O)[C@H]1CCC[C@@H]1N)C(C)C [H12 VV]
// result 277

###

Biological target: Gal-1 (Homo sapiens, UniProt P09382)
Construct: made in house; host or cells: E. coli BL21(DE3)
Sequence (P09382 whole entry): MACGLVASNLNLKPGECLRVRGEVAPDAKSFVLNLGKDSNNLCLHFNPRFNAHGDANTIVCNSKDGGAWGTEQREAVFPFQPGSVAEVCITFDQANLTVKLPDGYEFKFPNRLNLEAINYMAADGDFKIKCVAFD
Experiment: Pull-down assay with immobilized protein and LSM libraries
Assay type: binding
Details: H14 library; 1:1 binding assumed; read-out: Surface mapping KD (apparent)
Experimental: Pull-down assays with immobilized test proteins and foldameric LSM libraries were carried out. Proteins were equilibrated with LSM probes, and equilibrium bound fractions (FB) were determined from the unbound fractions measured by HPLC-MS methods. Hits were corrected with background binding of the resin. […] MS data analysis. […] Using these processing setups, all raw data files were reprocessed together and analyzed. […]
Could you please mark T for values of Kd below 200 µM and F for values at or above it?

// query # TODO verify Kd < 200 µM strictly for this molecule: C[C@@H](CC(=O)N[C@H]1CCCC[C@@H]1C(=O)N[C@H]1CCCC[C@@H]1C(=O)N[C@@H](CC(=O)O)CC(=O)N[C@H]1CCCC[C@@H]1C(N)=O)NC(=O)[C@H]1CCCC[C@@H]1N [H14 AD]
// result T

// query # TODO verify Kd < 200 µM strictly for this molecule: CSCC[C@@H](CC(=O)N[C@H]1CCCC[C@@H]1C(N)=O)NC(=O)[C@H]1CCCC[C@@H]1NC(=O)[C@H]1CCCC[C@@H]1NC(=O)C[C@H](CCSC)NC(=O)[C@H]1CCCC[C@@H]1N [H14 MM]
// result T

// query # TODO verify Kd < 200 µM strictly for this molecule: CC(C)C[C@@H](CC(=O)N[C@H]1CCCC[C@@H]1C(N)=O)NC(=O)[C@H]1CCCC[C@@H]1NC(=O)[C@H]1CCCC[C@@H]1NC(=O)C[C@H](Cc1ccccc1)NC(=O)[C@H]1CCCC[C@@H]1N [H14 FL]
// result T

// query # TODO verify Kd < 200 µM strictly for this molecule: CC[C@H](C)[C@@H](CC(=O)N[C@H]1CCCC[C@@H]1C(N)=O)NC(=O)[C@H]1CCCC[C@@H]1NC(=O)[C@H]1CCCC[C@@H]1NC(=O)C[C@H](Cc1ccc(O)cc1)NC(=O)[C@H]1CCCC[C@@H]1N [H14 YI]
// result T

// query # TODO verify Kd < 200 µM strictly for this molecule: CC(C)C[C@@H](CC(=O)N[C@H]1CCCC[C@@H]1C(=O)N[C@H]1CCCC[C@@H]1C(=O)N[C@@H](CO)CC(=O)N[C@H]1CCCC[C@@H]1C(N)=O)NC(=O)[C@H]1CCCC[C@@H]1N [H14 LS]
// result F

###

Biological target: CaM (Bos taurus)
Construct: made in house; host or cells: E. coli BL21 (DE3)
Assay: Competition pull-down with native ligand TRPV1-Ct15
Type: binding, bovine
Details: H14 library; competitor peptide 200 µM; read-out: Surface mapping KD (apparent), competition
Could you please mark 1 (yes) for values of Kd below 400 µM and 0 (no) for values at or above it?

Use the examples below as a reference point.
C[C@@H](O)[C@@H](CC(=O)N[C@H]1CCCC[C@@H]1C(N)=O)NC(=O)[C@H]1CCCC[C@@H]1NC(=O)[C@H]1CCCC[C@@H]1NC(=O)C[C@H](Cc1c[nH]c2ccccc12)NC(=O)[C@H]1CCCC[C@@H]1N :: 1 (yes)
C[C@@H](CC(=O)N[C@H]1CCCC[C@@H]1C(N)=O)NC(=O)[C@H]1CCCC[C@@H]1NC(=O)[C@H]1CCCC[C@@H]1NC(=O)C[C@H](CO)NC(=O)[C@H]1CCCC[C@@H]1N :: 1 (yes)
CC(C)C[C@@H](CC(=O)N[C@H]1CCCC[C@@H]1C(N)=O)NC(=O)[C@H]1CCCC[C@@H]1NC(=O)[C@H]1CCCC[C@@H]1NC(=O)C[C@H](Cc1ccccc1)NC(=O)[C@H]1CCCC[C@@H]1N :: 1 (yes)

// query # TODO verify Kd < 400 µM strictly for this molecule: CC(C)[C@@H](CC(=O)N[C@H]1CCCC[C@@H]1C(N)=O)NC(=O)[C@H]1CCCC[C@@H]1NC(=O)[C@H]1CCCC[C@@H]1NC(=O)C[C@@H](NC(=O)[C@H]1CCCC[C@@H]1N)[C@@H](C)O
// result 1 (yes)

// query # TODO verify Kd < 400 µM strictly for this molecule: NC(=O)[C@H]1CCCC[C@@H]1NC(=O)C[C@H](Cc1ccccc1)NC(=O)[C@H]1CCCC[C@@H]1NC(=O)[C@H]1CCCC[C@@H]1NC(=O)C[C@H](Cc1c[nH]c2ccccc12)NC(=O)[C@H]1CCCC[C@@H]1N
// result 1 (yes)

// query # TODO verify Kd < 400 µM strictly for this molecule: CC(C)C[C@@H](CC(=O)N[C@H]1CCCC[C@@H]1C(N)=O)NC(=O)[C@H]1CCCC[C@@H]1NC(=O)[C@H]1CCCC[C@@H]1NC(=O)C[C@H](CO)NC(=O)[C@H]1CCCC[C@@H]1N
// result 0 (no)

// query # TODO verify Kd < 400 µM strictly for this molecule: CC(C)[C@@H](CC(=O)N[C@H]1CCCC[C@@H]1C(=O)N[C@H]1CCCC[C@@H]1C(=O)N[C@H](CC(=O)N[C@H]1CCCC[C@@H]1C(N)=O)Cc1c[nH]c2ccccc12)NC(=O)[C@H]1CCCC[C@@H]1N
// result 1 (yes)

// query # TODO verify Kd < 400 µM strictly for this molecule: N=C(N)NCCC[C@@H](CC(=O)N[C@H]1CCCC[C@@H]1C(N)=O)NC(=O)[C@H]1CCCC[C@@H]1NC(=O)[C@H]1CCCC[C@@H]1NC(=O)C[C@H](CC(N)=O)NC(=O)[C@H]1CCCC[C@@H]1N
// result 0 (no)

// query # TODO verify Kd < 400 µM strictly for this molecule: NC(=O)[C@H]1CCCC[C@@H]1NC(=O)C[C@H](CCC(=O)O)NC(=O)[C@H]1CCCC[C@@H]1NC(=O)[C@H]1CCCC[C@@H]1NC(=O)C[C@H](CO)NC(=O)[C@H]1CCCC[C@@H]1N
// result 1 (yes)
